Listed compounds paired with reported pIC50
- TARGET_SYSTEM: Virion infectivity factor (Human immunodeficiency virus type 1 group M subtype B (isolate BH10)) + Virion infectivity factor (Human immunodeficiency virus type 1 group M subtype B (isolate BRU/LAI)) + Virion infectivity factor (Human immunodeficiency virus type 1 group M subtype B (isolate PCV12)) + Virion infectivity factor (Human immunodeficiency virus type 1 group M subtype B (isolate HXB2)) + DNA dC->dU-editing enzyme APOBEC-3G (Homo sapiens) (UniProt P69720+P69721+P69722+P69723+Q9HC16)
- ASSAY_SUMMARY: HIV-1 Vif–A3G interaction blockers – biochemical, TR-FRET, GST-Vif 1-94, biotin-A3G peptide, dose response retest, primary screen (AID 1117319);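 further: Vif residues 1-94 fused to GST binding biotinylated APOBEC3G peptide 110-148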
- COND: TR-FRET GST-Vif / biotin-A3G peptide binding
Records with an inconclusive call do not appear.
pIC50 here is simply -log10 of the concentration when that concentration is written in mol/L.

Look over these answered cases.
COMPOUND	pIC50
O=C(O)c1ccc2c(c1)[C@@H]1C=CC[C@@H]1[C@H](c1ccccn1)N2	5.98
O=C(O)CCc1ccc(-c2cccs2)n1-c1ccc(C(=O)O)cc1	4.09
O=C(COC(=O)/C=C/c1ccco1)Nc1ncc(C(F)(F)F)cc1Cl	4.89

Request: Check the records and state pIC50 for Cc1cccc(C)c1NC(=O)CSc1nnc(-c2ccco2)c(-c2ccco2)n1
Result: 5.69

Request: Please indicate pIC50 recorded for CN(CCC#N)C(=O)COC(=O)c1c2c(nc3ccccc13)/C(=C\c1ccco1)CC2
Result: 5.78

Request: Answer with reported pIC50 of CCOC(=O)COc1nc(-c2ccco2)cc(-c2ccco2)c1C#N
Result: 5.23

Request: For the compound O=C(Nc1ccc2nc(-c3ccco3)c(-c3ccco3)nc2c1)NC1CC1 , report pIC50.
Result: 6.52

Request: Using the record for CC(C)CC(=O)Nc1nnc(-c2ccco2)s1 , state its measured pIC50.
Result: 4.17

Request: Assign pIC50 to the following record: CCOC(=O)C1=C(COC(=O)/C=C/c2ccco2)NC(=O)NC1C (stereo unspecified)
Result: 4.96

Request: Answer with the recorded pIC50 for the compound listed here: COc1ccc(OCCOC(=O)c2cccc(-n3cnnn3)c2)cc1
Result: 4.03

Request: Fill in pIC50 for record O=C(C1CCCN1S(=O)(=O)c1cccc2cccnc12)N1CCN(c2ccccc2)CC1 (stereo unspecified)
Result: 4.40

----------
- TARGET_SYSTEM: Virion infectivity factor (Human immunodeficiency virus type 1 group M subtype B (isolate BH10)) + Virion infectivity factor (Human immunodeficiency virus type 1 group M subtype B (isolate BRU/LAI)) + Virion infectivity factor (Human immunodeficiency virus type 1 group M subtype B (isolate PCV12)) + Virion infectivity factor (Human immunodeficiency virus type 1 group M subtype B (isolate HXB2)) + DNA dC->dU-editing enzyme APOBEC-3G (Homo sapiens) (UniProt P69720+P69721+P69722+P69723+Q9HC16)
- ASSAY_SUMMARY: HIV-1 Vif–A3G interaction blockers – biochemical, TR-FRET, GST-Vif 1-94, biotin-A3G peptide, dose response retest, primary screen (AID 1117319);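 further: Vif residues 1-94 fused to GST binding biotinylated APOBEC3G peptide 110-148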
- COND: TR-FRET GST-Vif / biotin-A3G peptide binding
Inconclusive results are not listed.
Listed here are compounds together with their documented IC50.

Worked cases, IC50 given:
COMPOUND	IC50
O=C1C(Cl)=C(Nc2ccc3cn[nH]c3c2)C(=O)c2ccccc21	3.58 µM
O=C(CCCN1C(=O)/C(=C\c2ccco2)SC1=S)Nc1cccc2ccccc12	2.56 µM
CCOc1ccc2[nH]c(=O)c(CN(Cc3nnnn3Cc3ccco3)C3CCCCC3)cc2c1	4.82 µM
O=C1/C(=C/c2ccco2)SC(=S)N1C1CCS(=O)(=O)C1 (stereo not given)	3.88 µM
O=C1N=C(N2CCN(c3ccccc3)CC2)S/C1=C\c1ccco1	4.27 µM

Now let's try a different one.
Request: Let me know recorded IC50 for COc1cccc(NS(=O)(=O)c2ccc3c(c2)C2C=CCC2C(c2ccc(C(=O)O)cc2)N3)c1 (stereo not given) , thanks.
Result: 3.32 µM
